# test_method_notes: chemical genetic growth profiling, strain panel (AID 1159580);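 note: tested at 20 µM; growth read once vehicle control cultures reached saturation at 30 °C; 1 = growth at the plate median or of vehicle wells; lower values mean less growth of the strain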
# measurement_parameters: S. cerevisiae deletion strains, growth OD, locus YDR162C, strain NBP2, stronger effect = lower value
Out of some 5,500 compounds screened, about 2,000 (36%) were called active. About 18% were inconclusive and are not listed. The list shows a part of the results.
observation_type: normalized growth
Simply state the number, no unit and no words.

Example results:
• O=C(O)c1ccc(S(=O)(=O)N(Cl)Cl)cc1 = 1
• N[C@@H](CCC(=O)N[C@@H](CS)C(=O)NCC(=O)O)C(=O)O = 0.998

For this compound ( CN(C)C1C(=O)C(C(N)=O)=C(O)C2(O)C(=O)C3=C(O)c4c(O)ccc(Cl)c4C(C)(O)C3CC12 (stereo unspecified) ), measured normalized growth is 1.01

For this compound ( CN(C)[C@@H]1C(=O)C(C(N)=O)=C(O)[C@@]2(O)C(=O)C3=C(O)c4c(O)ccc(Cl)c4[C@@H](O)[C@H]3C[C@@H]12 ), measured normalized growth is 1.02

For this compound ( CC1(C)CC2C1CC[C@]1(CBr)CCC3C(CC(=O)O)C(=O)O[C@@]32C1 (stereo partly specified) ), measured normalized growth is 0.976

---

# test_method_notes: chemical genetic growth profiling, strain panel (AID 1159580);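 note: tested at 20 µM; growth read once vehicle control cultures reached saturation at 30 °C; 1 = growth at the plate median or of vehicle wells; lower values mean less growth of the strain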
# measurement_parameters: S. cerevisiae deletion strains, growth OD, locus YDR226W, strain ADK1, stronger effect = lower value
The campaign covered roughly 5,500 compounds. About 2,000 (36%) were called active. Not shown: some 18% with an inconclusive outcome. Some of the results follow.
Attribute: normalized growth
Simply state the number, no unit and no words.

• O=C(Nc1cccc(Cl)c1)O/N=C1\CCCc2occc21 = 0.945
• COC(=O)C1=C(Nc2ccccc2NS(=O)(=O)c2ccc(C(F)(F)F)cc2Cl)CSC1 = 0.972
• Cc1nn(-c2cccc(Cl)c2)c2oc(=O)cc(C(F)(F)F)c12 = 0.962

For this compound ( O=C(Nc1ccc(F)cc1F)c1cc(Cl)c(-n2cccc2)c(Cl)c1 ), measured normalized growth is 0.97

For this compound ( N/C(Cc1cccc2ccccc12)=N/OC(=O)c1ccc(Cl)cc1 ), measured normalized growth is 0.954

For this compound ( O=C(CSC1=NNC(c2ccccn2)S1)Nc1ccccc1 (stereo unspecified) ), measured normalized growth is 1

---

# test_method_notes: chemical genetic growth profiling, strain panel (AID 1159580);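 note: tested at 20 µM; growth read once vehicle control cultures reached saturation at 30 °C; 1 = growth at the plate median or of vehicle wells; lower values mean less growth of the strain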
# measurement_parameters: S. cerevisiae deletion strains, growth OD, locus YPL240C, strain hsp82, stronger effect = lower value
The whole screen tested about 5,500 compounds, of which about 2,000 (36%) were called active. Inconclusive results (about 18%) are left out. The list shows a part of the results.
observation_type: normalized growth
Simply state the number, no unit and no words.

* NC(Cn1ccc(=O)c(O)c1)C(=O)O (stereo not drawn) | 1.01

For this molecule ( O=C(NCO)c1cccnc1 ), measured normalized growth is 1.02

For this molecule ( CC(C)=CCc1c2c(c3occ(-c4ccc(O)c(O)c4)c(=O)c3c1O)C=CC(C)(C)O2 ), measured normalized growth is 0.984

---

Attribute: normalized growth
# test_method_notes: chemical genetic growth profiling, strain panel (AID 1159580);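 note: tested at 20 µM; growth read once vehicle control cultures reached saturation at 30 °C; 1 = growth at the plate median or of vehicle wells; lower values mean less growth of the strain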
# measurement_parameters: S. cerevisiae deletion strains, growth OD, locus YGR135W, strain pre9, stronger effect = lower value
The whole screen tested about 5,500 compounds, of which about 2,000 (36%) were called active. Another 18% or so got no clear call; they are omitted. The list shows a part of the results.
Simply state the number, no unit and no words.

• NS(=O)(=O)c1cc2c(cc1Cl)NC(CSCc1ccccc1)=NS2(=O)=O = 0.992
• C=C(C)C1(O)OC(=O)C=C1OC (stereo not given) = 0.983
• NCC(N)C(=O)c1ccccc1 (stereo not given) = 1
• COc1ccc([C@@H]2CC(=O)c3c(O)cc(O[C@@H]4O[C@H](CO[C@H]5O[C@@H](C)[C@H](O)[C@@H](O)[C@H]5O)[C@@H](O)[C@H](O)[C@H]4O)cc3O2)cc1O = 0.998

For this molecule ( O=C(OCc1ccccc1)c1ccccc1 ), measured normalized growth is 0.949
